# Tested on: Malme-3M
# experimentDescription: NCI tumour cell line growth inhibition, 48 h
Activity calls are given as the source filed them. Rule as the data show it: active = GI50 up to about 1.1 µM and inactive = higher.
readoutName: GI50

The recorded GI50 for entry C=CC/C=C/Cc1csc(C(C)(C)C(O)C/C=C/C(=C)CCNC(=O)OC)n1 (stereo not given) equals > 91.8 µM (inactive)

Entry CC1(C)Cc2nc3c(cc2C(=O)C1/C=N/C(C#N)=C(\N)C#N)C(=O)C(/C=N/C(C#N)=C(\N)C#N)C(C)(C)C3 (stereo not given) ; GI50 = 1.52 µM (inactive)

// recorded GI50 for Oc1ccc2c(O)cc(-c3ccccc3)nc2c1 : 34.4 µM (inactive)

// C=C1C=CC2(Br)OC3CC(C)(Cl)C(Br)CC13C2(C)C (stereo not given) : GI50 value = 18.2 µM (inactive)

Lab note: measured GI50 of Cn1c2ccccc2c2cc(-c3ccccc3)c3c(c21)C(=O)c1ccccc1C3=O was 22.3 µM (inactive)

Value of measured GI50 for the entry CCN(CCCl)c1cc(CN(C)C)cc(NC(=O)c2ccc(C(=O)Nc3cccc(CN(C)C)c3)cc2)c1 : 1.31 µM (inactive)

Sample COC1OC(CO)C(O)C(OC(=O)c2cc(O)c(O)c(O)c2)C1OC(=O)c1cc(O)c(O)c(O)c1 (stereo not given) ; GI50 observed: > 100 µM (inactive)

Entry Cc1ccc(C2=CC(=O)/C(=C\C(=O)c3ccc(Cl)cc3)O2)cc1 ; GI50 = 17.2 µM (inactive)

// GI50 lookup, compound = FC1=C2C3CCC(C3)C2C1(F)F (stereo not given) , result: > 100 µM (inactive)

For record c1ccc2c(c1)nc1n2CNCC1 the listed GI50 is 63.7 µM (inactive)

---

# Test system: SK-OV-3
# experimentDescription: NCI tumour cell line growth inhibition, 48 h
The source made the active and inactive calls. Cut-off read from the data, not from the text of the source: active = GI50 up to about 1.1 µM and inactive = higher.
Kindly supply the reported GI50 values for the records listed here.

Notebook: NC(=S)N/N=C1\CCCCC1C(O)(C(F)(F)Cl)C(F)(F)Cl (stereo not given) , GI50 read as > 10 µM (inactive)

So, C[C@@]12C(=O)OC(=O)[C@]1(C)[C@H]1CC[C@@H]2O1 ? Its GI50 was 2.17 µM (inactive)

The compound COc1ccc(OC)c2sc(N3C(=O)/C(=C/Cc4ccco4)N=C3c3ccccc3)nc12 showed GI50 equal to 83.4 µM (inactive)

// recorded GI50 for [N-]=[N+]=NI1OC(C(F)(F)F)(C(F)(F)F)c2ccccc21 : 21.5 µM (inactive)

// GI50 lookup, compound = COc1ccc(Cc2nc3cc(C(F)(F)F)ccc3n2CCCN(C)C)cc1 , result: 16.7 µM (inactive)

// sample Cn1cc2ccccc2c1-c1nc(F)nc(Nc2ccc(N)cc2)n1 , its GI50 was 11.6 µM (inactive)

So for CN1Cc2ccccc2C2(COc3ccccc3C2=O)C1 (stereo not given) , the logged GI50 turned out to be > 100 µM (inactive)

# compound COc1ccc(CNc2nc3c(NC(C)=O)cc(C(F)(F)F)cc3nc2-c2ccccc2)cc1OC ; its GI50 = 40.7 µM (inactive)

Per the records, this compound ( CCCCc1ccc(Nc2nc(S)c3ncn(COCCO)c3n2)cc1 ) has GI50 equal to > 100 µM (inactive)

According to the records, this compound O=C1CC(c2ccccc2Cl)C2(C(=O)NC(=S)NC2=O)C(c2ccccc2Cl)C1 (stereo not given) displays GI50 of 43 µM (inactive)

GI50 for CCOC(=O)c1nc2ccccc2nc1Nc1ccc(F)cc1 is 11.7 µM (inactive)

Documented GI50 of CCN(CC(O)COc1ccc2c(c1)[n+]([O-])nc(N)[n+]2[O-])C(C)=O (stereo not given) : > 100 µM (inactive)

Summary for this compound, O=C1c2ccccc2-c2nnc3c(c21)Cc1ccccc1C3 : GI50 is > 10 µM (inactive)

Kindly note the recorded GI50 for COC(=O)c1ccc2c(c1)CC1(C2)Cc2ccccc2C1=O (stereo not given) , which is 68.4 µM (inactive)

GET /value?item= COc1cc(OC)c2c(O)cc(CC(C)O)cc2c1 (stereo not given) &field=GI50 returns > 100 µM (inactive)

So, COc1cc(C(c2cc(OC)c(OC)c(OC)c2)N2C(=O)CCC2C(=O)O)cc(OC)c1OC (stereo not given) ? Its GI50 was > 100 µM (inactive)

CC(=O)/C(=C/c1ccccc1F)C(=O)c1ccccc1 has a reported GI50 of 34.9 µM (inactive)

Lab note: measured GI50 of C(=N/NC1=NCCN1)/c1c2ccccc2c(/C=N\NC2=NCCN2)c2ccccc12 was 0.177 µM (active)

Just so you know, measured GI50 for O=C(O)C1CSC2(CCCN(Cc3ccccc3)C2)N1 (stereo not given) came out at > 100 µM (inactive)

Query O=C(CC(C(=O)c1ccsc1)c1cccs1)c1cccs1 (stereo not given) yields GI50 of > 100 µM (inactive)

Measured GI50 of c1ccc(/N=C(/Nc2ccccc2)N2CCCCC2)cc1 : 74.1 µM (inactive)

So for COc1cc2c(cc1OCCCCOc1cc(-c3ccc(F)cc3)nc(C)n1)N=C[C@@H]1CCCN1C2=O , the logged GI50 turned out to be 3.19 µM (inactive)

Item: COC1OC(CO)C(O)C(OC(=O)c2cc(O)c(O)c(O)c2)C1OC(=O)c1cc(O)c(O)c(O)c1 (stereo not given) | GI50: > 100 µM (inactive)

In plain terms, Cc1ccc(C2=CC(=O)/C(=C\C(=O)c3ccc(Cl)cc3)O2)cc1 has a documented GI50 of 6.43 µM (inactive)

For O=c1oc2cc(O)ccc2cc1-c1nc2ccccc2s1 the compound record lists GI50 as 38.8 µM (inactive)

The compound listed as Cc1cccc(Nc2nc3ccccc3nc2NS(=O)(=O)c2ccc(N)cc2)c1 has a reported GI50 of 54.8 µM (inactive)

Please fill in: GI50 reported for C=C1C(=O)OC2CC3(C)C=CC(=O)C(=C)C3CC12 (stereo not given) = 20.8 µM (inactive)

Record COc1ccc(-c2cc(O)c3cccnc3n2)cc1 . Reported GI50: 26.7 µM (inactive)

Given item Cc1cc(Nc2ccc(S(=O)(=O)O)c3cc(S(=O)(=O)O)cc(S(=O)(=O)O)c23)c2ccccc2n1 , the value recorded as its GI50 is > 100 µM (inactive)

Documented GI50 of Cc1cc2ncn(C3CCCO3)c2cc1C (stereo not given) : > 100 µM (inactive)
